# target or test system: EGFR (d746-750) (Homo sapiens (Human), UniProt P00533, DEL746-750)
# Sequence (P00533 other isoform, or with tags, fused parts or gaps del 1-694/del 746-750 limits assumed): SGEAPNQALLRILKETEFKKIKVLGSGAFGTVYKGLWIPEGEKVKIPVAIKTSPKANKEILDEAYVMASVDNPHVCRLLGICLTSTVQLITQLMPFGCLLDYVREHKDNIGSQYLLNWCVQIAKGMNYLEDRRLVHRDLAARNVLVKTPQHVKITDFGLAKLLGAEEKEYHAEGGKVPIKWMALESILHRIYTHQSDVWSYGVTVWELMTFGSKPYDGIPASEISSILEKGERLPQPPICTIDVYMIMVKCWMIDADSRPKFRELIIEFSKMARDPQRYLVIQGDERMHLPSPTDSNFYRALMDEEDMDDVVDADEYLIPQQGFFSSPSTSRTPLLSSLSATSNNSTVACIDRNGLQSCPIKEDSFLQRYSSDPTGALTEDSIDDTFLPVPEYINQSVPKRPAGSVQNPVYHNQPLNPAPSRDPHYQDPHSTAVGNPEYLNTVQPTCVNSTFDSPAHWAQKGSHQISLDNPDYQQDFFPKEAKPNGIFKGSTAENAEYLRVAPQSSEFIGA
# measurement protocol: Biochemical EGFR inhibition assay, EGFR (d746-750)
# cond: Caliper mobility shift; 1.0 mM ATP or ATP Km; read-out: Enz EGFR_Exon19-del746-750 IC50
readout name: IC50 (nM)

Below, 3 compounds whose answers are already recorded.
compound	reading unit	test value
COc1cc2ncnc(-c3cn(C)nc3-c3ccccc3)c2cc1NC(=O)c1scnc1C [Example 207]	nM	0.8
COc1cc2ncnc(-c3cn(C)nc3-c3ccccc3)c2cc1NC(=O)[C@@]1(C)CCCO1 (single isomer, unassigned) [Example 259]	nM	1.1
COc1cc2ncnc(-c3cn(C4CC4)nc3-c3ccccc3)c2nc1NC(=O)C1(C(F)(F)F)CC1 [Example 367]	nM	0.9

(I) COc1cc2ncnc(-c3cn(C)nc3-c3ccccc3)c2cc1NC(=O)c1ccc(C)nc1 [Example 323]
(II) CCOc1cc2ncnc(-c3cn(C)nc3-c3ccccc3)c2cc1NC(=O)c1cnn(CC)c1 [Example 298]
(III) COc1cc2ncnc(-c3cn(CC4CC4)nc3-c3ccccc3)c2nc1NC(=O)[C@]12C[C@H]1CN(C)C2 (single isomer, unassigned) [Example 409]
(IV) COc1cc2ncnc(-c3cn(C)nc3-c3ccccc3)c2cc1NC(=O)c1cc2n(n1)CCCC2 [Example 225]
Data request: Sequence the entries by IC50, beginning with the highest number. Please respond by ranking the labels in the order requested.
Data returned: IV, I, II, III

* * *

# target or test system: EGFR L858R (Homo sapiens (Human), UniProt P00533, L858R)
# Sequence (P00533 25-1210 L858R): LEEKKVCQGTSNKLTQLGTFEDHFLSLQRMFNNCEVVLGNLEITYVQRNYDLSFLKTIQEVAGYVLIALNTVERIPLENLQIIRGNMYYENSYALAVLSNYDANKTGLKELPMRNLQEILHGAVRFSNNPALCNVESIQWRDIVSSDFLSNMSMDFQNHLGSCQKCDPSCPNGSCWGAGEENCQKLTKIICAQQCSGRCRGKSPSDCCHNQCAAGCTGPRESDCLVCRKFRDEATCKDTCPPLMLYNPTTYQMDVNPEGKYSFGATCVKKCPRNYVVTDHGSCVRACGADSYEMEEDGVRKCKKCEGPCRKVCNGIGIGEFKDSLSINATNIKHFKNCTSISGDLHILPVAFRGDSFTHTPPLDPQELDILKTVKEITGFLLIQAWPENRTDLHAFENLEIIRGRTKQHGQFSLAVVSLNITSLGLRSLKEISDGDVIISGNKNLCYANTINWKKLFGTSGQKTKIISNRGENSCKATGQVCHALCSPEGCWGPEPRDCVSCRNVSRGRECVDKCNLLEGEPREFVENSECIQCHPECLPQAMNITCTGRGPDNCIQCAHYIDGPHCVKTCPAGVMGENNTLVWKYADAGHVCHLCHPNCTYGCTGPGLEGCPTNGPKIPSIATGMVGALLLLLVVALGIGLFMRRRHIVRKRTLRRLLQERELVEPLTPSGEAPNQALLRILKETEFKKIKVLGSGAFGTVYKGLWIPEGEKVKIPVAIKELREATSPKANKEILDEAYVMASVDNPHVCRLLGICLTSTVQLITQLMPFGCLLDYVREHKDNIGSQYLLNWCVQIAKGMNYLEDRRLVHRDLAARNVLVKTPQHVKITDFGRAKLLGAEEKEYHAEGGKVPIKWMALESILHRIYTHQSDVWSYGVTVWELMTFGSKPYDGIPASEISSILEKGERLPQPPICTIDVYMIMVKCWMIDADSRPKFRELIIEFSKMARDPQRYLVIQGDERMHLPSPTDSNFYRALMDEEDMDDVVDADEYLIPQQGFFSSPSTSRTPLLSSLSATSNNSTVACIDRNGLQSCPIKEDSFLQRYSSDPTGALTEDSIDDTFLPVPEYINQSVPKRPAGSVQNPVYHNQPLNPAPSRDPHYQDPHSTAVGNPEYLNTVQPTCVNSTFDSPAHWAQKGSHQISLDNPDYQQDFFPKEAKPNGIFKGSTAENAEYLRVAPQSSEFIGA
# measurement protocol: Biochemical EGFR inhibition assay, EGFR L858R
# cond: Caliper mobility shift; 1.0 mM ATP or ATP Km; read-out: Enz EGFR_L858R IC50
readout name: IC50 (nM)

compound	test value
COc1cc2ncnc(-c3cn(C)nc3-c3ccccc3F)c2cc1OC(=O)N1CCN(C)C[C@@H]1C	2.9
COc1cc2ncnc(-c3cn(C)nc3-c3ccc(F)cc3)c2nc1NC(=O)[C@]12C[C@H]1CN(C)C2 (single isomer, unassigned)	2.6
CCOc1cc2ncnc(-c3cn(C)nc3-c3ccccc3)c2cc1[C@@H](C)O (single isomer, unassigned)	2.1

* * *

# target or test system: EGFR (d746-750) (Homo sapiens (Human), UniProt P00533, DEL746-750)
# measurement protocol: Biochemical EGFR inhibition assay, EGFR (d746-750)
# cond: Caliper mobility shift; 1.0 mM ATP or ATP Km; read-out: Enz EGFR_Exon19-del746-750 IC50
readout name: IC50 (nM)

Below, 5 compounds whose answers are already recorded.
compound	test value
COc1cc2ncnc(-c3cn(C)nc3-c3ccccc3)c2nc1O[C@H](C)c1nnnn1C	1.9
COc1cc2ncnc(-c3c[nH]nc3-c3ccccc3)c2nc1NC(=O)C1(C(F)(F)F)CC1	0.7
COc1cc2ncnc(-c3cn(C)nc3-c3ccccc3)c2cc1NC(=O)C(C)N(C)C (centres unmarked)	1.7
CCn1cc([C@H](C)Oc2nc3c(-c4cn(C)nc4-c4ccccc4)ncnc3cc2OC)nn1	3.2
Cn1cc(-c2ncnc3cc(OC(F)F)c(NC(=O)C4(C(F)(F)F)CC4)nc23)c(-c2ccccc2)n1	0.8

(a) COc1cc2ncnc(-c3cn(CCO)nc3-c3ccccc3)c2nc1NC(=O)C12CC(C1)C2
(b) CCOc1cc2ncnc(-c3cn(C(C)C)nc3-c3ccccc3)c2cc1CO
(c) COc1cc2ncnc(-c3cn(C)nc3-c3ccccc3)c2cc1NC(=O)c1cccc(F)c1C
Data request: Sequence the entries by IC50, beginning with the highest number. Please respond by ranking the labels in the order requested.
Data returned: c, a, b

* * *

# target or test system: EGFR L858R (Homo sapiens (Human), UniProt P00533, L858R)
# measurement protocol: Biochemical EGFR inhibition assay, EGFR L858R
# cond: Caliper mobility shift; 1.0 mM ATP or ATP Km; read-out: Enz EGFR_L858R IC50
readout name: IC50 (nM)

Below, 5 molecules whose answers are already recorded.
molecule	IC50 [nM]
COc1cc2ncnc(-c3cn(C)nc3-c3ccc(F)cc3)c2nc1NC(=O)C1(C(F)(F)F)CC1	1.1
COc1cc2ncnc(-c3cn(C)nc3-c3ccccc3)c2cc1NC(=O)[C@]1(C)CCCO1 (single isomer, unassigned)	3.8
CCOc1cc2ncnc(-c3cn(C)nc3-c3ccccc3)c2nc1NC(=O)C12CC(C1)C2	3.4
CCn1cc(-c2ncnc3cc(OC)c(N4CCOCC4)cc23)c(-c2ccccc2)n1	1.7
COc1cc2ncnc(-c3cn(C4COC4)nc3-c3ccccc3)c2cc1OC(=O)N1CCN(C)C[C@@H]1C	7.1

(1) COc1cc2ncnc(-c3cn(C)nc3-c3ccccc3)c2cc1NC(=O)[C@]12COC[C@H]1C2 (single isomer, unassigned)
(2) CCOc1cc2ncnc(-c3cn(CC)nc3-c3ccccc3)c2cc1[C@@H](C)O (single isomer, unassigned)
(3) Cn1cc(-c2ncnc3cc(O)c(NC(=O)C4(C(F)(F)F)CC4)nc23)c(-c2ccccc2)n1
(4) COc1cc2ncnc(-c3cn(C)nc3-c3ccccc3)c2nc1O[C@@H](C)c1cccnc1F
Data request: Sequence the entries by IC50, beginning with the highest number. Please respond by ranking the labels in the order requested.
Data returned: 1, 4, 2, 3

* * *

# target or test system: EGFR (d746-750) (Homo sapiens (Human), UniProt P00533, DEL746-750)
# measurement protocol: Biochemical EGFR inhibition assay, EGFR (d746-750)
# cond: Caliper mobility shift; 1.0 mM ATP or ATP Km; read-out: Enz EGFR_Exon19-del746-750 IC50
readout name: IC50 (nM)

Below, 8 compounds whose answers are already recorded.
compound	target or test system	readout name	test value
COc1cc2ncnc(-c3cn(C)nc3-c3ccccc3)c2nc1O[C@@H](C)c1nnc(C)s1 (single isomer, unassigned)	EGFR (d746-750) (Homo sapiens (Human), UniProt P00533, DEL746-750)	IC50	5.3
COc1cc2ncnc(-c3cn(C)nc3-c3ccccc3)c2cc1-c1cccc2[nH]ncc12	EGFR (d746-750) (Homo sapiens (Human), UniProt P00533, DEL746-750)	IC50	1.7
COc1cc2ncnc(-c3cn(C)nc3-c3ccccc3)c2cc1NC(=O)c1ccncc1C	EGFR (d746-750) (Homo sapiens (Human), UniProt P00533, DEL746-750)	IC50	1.8
COc1cc2ncnc(-c3cn(C)nc3-c3c(F)cccc3F)c2cc1NC(=O)[C@@]12C[C@@H]1CN(C)C2	EGFR (d746-750) (Homo sapiens (Human), UniProt P00533, DEL746-750)	IC50	3.2
COc1cc2ncnc(-c3cn(C)nc3-c3ccccc3)c2cc1OC(=O)N1[C@H](C)CN(C)C[C@H]1C	EGFR (d746-750) (Homo sapiens (Human), UniProt P00533, DEL746-750)	IC50	1.9
COc1cc2ncnc(-c3cn(C)nc3-c3ccccc3)c2cc1NC(=O)C1(C)COC1	EGFR (d746-750) (Homo sapiens (Human), UniProt P00533, DEL746-750)	IC50	1.9
COc1cc2ncnc(-c3cn(C)nc3-c3ccc(F)cc3)c2nc1NC(=O)C1(C(F)(F)F)CC1	EGFR (d746-750) (Homo sapiens (Human), UniProt P00533, DEL746-750)	IC50	0.5
COc1cc2ncnc(-c3cn(C)nc3-c3ccccc3)c2cc1NC(=O)c1cnn(C(F)(F)F)c1C	EGFR (d746-750) (Homo sapiens (Human), UniProt P00533, DEL746-750)	IC50	1.1

(P) COc1cc2ncnc(-c3cn(CC(F)F)nc3-c3ccccc3)c2cc1O[C@@H]1CCN(C)C[C@H]1F
(Q) COc1cc2ncnc(-c3cn(C)nc3-c3ccccc3)c2nc1NC(=O)C12CC(N(C)C)(C1)C2
(R) CCn1cc(-c2ncnc3cc(OC)c(N4CCOCC4)cc23)c(-c2ccc(F)cc2)n1
Data request: Sequence the entries by IC50, beginning with the highest number. Please respond by ranking the labels in the order requested.
Data returned: R, P, Q
(R: 2.9 nM, P: 1.5 nM, Q: 0.7 nM)

(A) C[C@H](O)c1cc2c(-c3cn(CC(F)F)nc3-c3ccccc3)ncnc2cc1O[C@H]1CCOC1 (single isomer, unassigned)
(B) CCOc1cc2ncnc(-c3cn(C)nc3-c3ccccc3)c2cc1NC(=O)[C@@]12COC[C@@H]1C2
(C) CCOc1cc2ncnc(-c3cn(C)nc3-c3ccccc3F)c2nc1NC(=O)[C@@]12C[C@@H]1CN(C)C2 (single isomer, unassigned)
Data request: Endpoint returns the given compounds ordered by ascending IC50. Please respond by ranking the labels in the order requested.
Data returned: A, B, C
(A: 0.6 nM, B: 0.9 nM, C: 1.6 nM)

(P) COc1cc2ncnc(-c3sc(C)nc3-c3ccccc3)c2nc1NC(=O)C1CC1
(Q) COc1cc2ncnc(-c3cn(C)nc3-c3ccccc3)c2cc1NC(=O)[C@H]1C[C@H]1C
Data request: Between P and Q , which one has the lower reported IC50 value? # respond with the chosen item's label
Data returned: P

(1) COc1cc2ncnc(-c3cn(C)nc3-c3ccccc3)c2nc1O[C@@H](C)c1nnc(C)o1
(2) COc1cc2ncnc(-c3cn(C)nc3-c3ccccc3)c2nc1O[C@H](C)c1cccnc1F
(3) CCOc1cc2ncnc(-c3cn(CC)nc3-c3ccccc3)c2cc1N1CCOCC1
Data request: Endpoint returns the given compounds ordered by ascending IC50. Please respond by ranking the labels in the order requested.
Data returned: 3, 2, 1

(1) CCC(=O)Nc1cc2c(-c3cn(C)nc3-c3ccccc3)ncnc2cc1C#CCN1CCOCC1
(2) CCn1cc(-c2ncnc3cc(OC)c(NC(=O)[C@@]45COC[C@@H]4C5)cc23)c(-c2ccccc2)n1
Data request: Between 1 and 2 , whose measured IC50 reads higher? # respond with the chosen item's label
Data returned: 1

(P) COc1cc2ncnc(-c3cn(C)nc3-c3ccccc3)c2cc1CO
(Q) COc1cc2ncnc(-c3cn(C)nc3-c3ccc(F)cc3F)c2cc1N1CCOCC1
(R) COc1cc2ncnc(-c3cn(C)nc3-c3ccccc3)c2cc1OC1COCCOC1
Data request: Sequence the entries by IC50, beginning with the highest number. Please respond by ranking the labels in the order requested.
Data returned: R, P, Q

Data provenance is patent US20250236608A1.
